- Target Or System: GlcNAc(a1-4)Gal(b1-4)GlcNAc(b1-3)Gal(b1-4)GlcNAc
- Protocol Description: glycan array binding signal (z-score within array); higher = stronger binding
- Assay Setup: glycan notation: IUPAC condensed, linker removed
The entries come from a sample that favours the strongest signals as a whole.
Test Readout: glycan array binding signal (z-score)

- Binder: "CVN (Nostoc ellipsosporum), P81180 (protein) LGKFSQTCYNSAIQGSVLTSTCERTNGGYNTSSIDLNSVIENVDGSLKWQPSNFIETCRNTQLAGSSELAAECKTRAQQFVSTKINLDDHIANIDGTLKYE"
  Value Observed: -0.203
- Binder: "LICBM33A (Lactococcus lactis), Q9CE94 (protein) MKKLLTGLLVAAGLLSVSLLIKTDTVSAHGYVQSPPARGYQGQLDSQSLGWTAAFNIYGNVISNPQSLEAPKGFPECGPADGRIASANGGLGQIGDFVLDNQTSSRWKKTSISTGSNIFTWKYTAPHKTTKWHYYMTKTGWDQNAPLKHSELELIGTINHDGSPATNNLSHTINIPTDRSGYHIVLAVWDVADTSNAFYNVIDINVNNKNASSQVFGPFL"
  Value Observed: -0.4
- Binder: "ECL (Erythrina cristagalli), Q6YD91 (protein) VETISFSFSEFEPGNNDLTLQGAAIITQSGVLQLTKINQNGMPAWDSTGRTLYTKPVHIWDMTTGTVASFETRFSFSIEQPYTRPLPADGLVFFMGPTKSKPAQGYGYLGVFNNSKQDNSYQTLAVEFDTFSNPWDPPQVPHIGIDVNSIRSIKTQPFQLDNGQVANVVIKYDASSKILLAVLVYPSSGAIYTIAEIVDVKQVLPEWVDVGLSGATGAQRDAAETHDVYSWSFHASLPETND"
  Value Observed: -0.028

Data provenance is the supplement of paper PMC8728848.
